Hi there, I'd appreciate the recorded SGCB cell-surface expression functional score (log10) for every entry that follows.
B1: library; numbered along this chain (parent)
chain: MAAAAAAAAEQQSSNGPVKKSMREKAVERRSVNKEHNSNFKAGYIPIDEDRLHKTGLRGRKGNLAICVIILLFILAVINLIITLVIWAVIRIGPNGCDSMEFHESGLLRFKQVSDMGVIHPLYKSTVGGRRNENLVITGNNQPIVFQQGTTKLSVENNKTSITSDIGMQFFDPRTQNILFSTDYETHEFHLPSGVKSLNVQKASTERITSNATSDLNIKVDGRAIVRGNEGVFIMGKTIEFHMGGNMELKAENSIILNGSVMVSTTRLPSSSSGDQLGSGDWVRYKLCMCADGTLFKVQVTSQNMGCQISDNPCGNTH

variants of: B1; test: SGCB cell-surface expression functional score (HA stain, bin4 vs bin1, normalised to synonymous) (log10 ratio); higher = more cell-surface SGCB (functional)

Take a look at these entries with their results.
>>> result_value("N132C")
0.33
>>> result_value("M100R")
-1.19
>>> result_value("T160D")
-1.29
>>> result_value("F102R")
-1.14
>>> result_value("A251S")
0.32

I have 3 variants here; please give me SGCB cell-surface expression functional score (log10) for each one.
1. L268E
2. F110R
3. G93R

1. -0.13
2. -1.05
3. -0.4

Look up SGCB cell-surface expression functional score (log10) for the entries below, preserving their order.
1. I69Q
2. G259W
3. T182D
4. V261Y
5. P313R
6. E35P
7. L84W
8. R60I

0.03
-1.53
-2.4
-1.15
-0.02
-0.21
0.4
0.5
